target-entity: S100B (UniProt P04631)
protocol-text: Fluorescence binding / competition titrations of small molecules to S100B
condition-description: read-out: binding constant (KD) between wild-type holo-S100B and pentamidine; competition of pentamidine bound to F43W S100B with wild-type S100B
recorded-metric: Kd (nM)
Please reply with the bare figure in nM and do not write the unit itself.

Q: Give S100B (UniProt P04631) Kd for N=C(N)c1ccc(OCCCCCOc2ccc(C(=N)N)cc2)cc1 [pentamidine, reference compound]
Result: 700

====

Test system: primary malignant melanoma cells (C8146A and HTB 64)
protocol-text: Growth of primary malignant melanoma cells (cell counting after 13 days)
Assay type: cell-based
condition-description: Homo sapiens, primary malignant melanoma cells; read-out: IC50 (growth inhibition constant), unit inferred
recorded-metric: IC50

Q: Request the reported IC50 associated with N=C(N)NC(=N)Nc1cccc(Cl)c1Cl [Compound 3]
Result: < 2500 nM

====

Assign pKd to each entry below.
target-entity: S100B (UniProt P04631)
protocol-text: Fluorescence binding / competition titrations of small molecules to S100B
condition-description: direct fluorescence, F43W S100B or peptide-probe competition; 25° C., calcium present; read-out: Kd (binding to S100B, fluorescence spectroscopy)
Scale note: pKd = -log10(concentration in M).

Q: Request the reported pKd associated with Cc1c(NS(=O)(=O)c2ccc(NC(=O)CCC(=O)O)cc2)c(=O)n(-c2ccccc2)n1C
Result: 5.70

Q: Request the reported pKd associated with N=C(N)c1ccc(OCCCCCOc2ccc(C(=N)N)cc2)cc1 [pentamidine, reference compound]
Result: 5.85

Q: Request the reported pKd associated with O=C(COc1ccc(C(F)(F)F)c[n+]1[O-])c1cccc([N+](=O)[O-])c1
Result: 5.57

Q: Request the reported pKd associated with N=C(N)NC(=N)Nc1ccc(Cl)cc1C(=O)c1ccccc1
Result: 5.40

====

target-entity: S100B (UniProt P04631)
Sequence (P04631 1-92): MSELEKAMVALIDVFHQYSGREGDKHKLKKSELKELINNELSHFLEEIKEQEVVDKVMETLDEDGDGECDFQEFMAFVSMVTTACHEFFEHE
protocol-text: Fluorescence binding / competition titrations of small molecules to S100B
condition-description: direct fluorescence, F43W S100B or peptide-probe competition; 25° C., calcium present; read-out: Kd (binding to S100B, fluorescence spectroscopy)
Assign Kd to each entry below.

Q: Give S100B (UniProt P04631) Kd for CC(C)(C)NC(=O)c1cccc(N2C(=O)c3ccc(C(=O)O)cc3C2=O)c1
Result: ~24 µM

Q: Give S100B (UniProt P04631) Kd for O=C(O)c1cc(N/N=C/c2ccc(-c3ccc(Cl)c(C(=O)O)c3)o2)ccc1Cl
Result: ~6 µM

Q: Give S100B (UniProt P04631) Kd for COc1cccc(N2C(=O)c3ccc(C(=O)Nc4cc(C(=O)O)cc(C(=O)O)c4)cc3C2=O)c1
Result: ~12 µM
